- System Under Test: Factor X (FX), P00742
- Sequence (P00742 whole entry, looked up): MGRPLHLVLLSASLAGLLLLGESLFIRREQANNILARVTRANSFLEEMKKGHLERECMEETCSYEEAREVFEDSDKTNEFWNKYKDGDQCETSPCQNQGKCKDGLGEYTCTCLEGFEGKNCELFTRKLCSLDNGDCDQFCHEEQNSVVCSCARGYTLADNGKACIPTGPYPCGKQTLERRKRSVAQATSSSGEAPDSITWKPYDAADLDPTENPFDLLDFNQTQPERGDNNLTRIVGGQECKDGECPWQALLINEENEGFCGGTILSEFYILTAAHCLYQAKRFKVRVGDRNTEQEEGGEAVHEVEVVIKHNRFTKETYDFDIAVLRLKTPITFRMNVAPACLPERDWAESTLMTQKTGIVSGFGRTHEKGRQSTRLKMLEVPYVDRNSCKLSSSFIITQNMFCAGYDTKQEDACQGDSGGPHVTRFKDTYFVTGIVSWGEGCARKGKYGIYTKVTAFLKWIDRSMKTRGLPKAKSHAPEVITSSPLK
Measured Property: kcat/KM for FX activation (Xase: FVIIIa, PC/PS vesicles, Ca2+) (M⁻¹ s⁻¹)
Report only the number, with the unit M⁻¹ s⁻¹ understood.

Param item = FIXa-R318Y/R338E/T343R (protein) chain 1: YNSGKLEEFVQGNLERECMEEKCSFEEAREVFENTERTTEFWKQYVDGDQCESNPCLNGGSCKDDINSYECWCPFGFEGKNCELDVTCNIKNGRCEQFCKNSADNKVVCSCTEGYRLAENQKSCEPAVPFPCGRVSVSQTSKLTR chain 2: VVGGEDAKPGQFPWQVVLNGKVDAFCGGSIVNEKWIVTAAHCVETGVKITVVAGEHNIEETEHTEQKRNVIRIIPHHNYNAAINKYNHDIALLELDEPLVLNSYVTPICIADKEYTNIFLKFGSGYVSGWGRVFHKGYSALVLQYLRVPLVDRATCLESTKFRIYNNMFCAGFHEGGRDSCQGDSGGPHVTEVEGTSFLTGIISWGEECAMKGKYGIYTKVSRYVNWIKEKTKLT ; retrieve measured kcat/KM for FX activation (Xase: FVIIIa, PC/PS vesicles, Ca2+).
1.5e+08
